Experimental System: T1, cynomolgus 5T4 protein (cynomolgus monkey, UniProt Q4R8Y9 35-355, limits assumed)
T1 construct: Coated protein in ELISA; the screening step names a cyno 5T4-His protein; also called cyno 5T4; recombinant cyno 5T4-His protein
T1 sequence (looked up): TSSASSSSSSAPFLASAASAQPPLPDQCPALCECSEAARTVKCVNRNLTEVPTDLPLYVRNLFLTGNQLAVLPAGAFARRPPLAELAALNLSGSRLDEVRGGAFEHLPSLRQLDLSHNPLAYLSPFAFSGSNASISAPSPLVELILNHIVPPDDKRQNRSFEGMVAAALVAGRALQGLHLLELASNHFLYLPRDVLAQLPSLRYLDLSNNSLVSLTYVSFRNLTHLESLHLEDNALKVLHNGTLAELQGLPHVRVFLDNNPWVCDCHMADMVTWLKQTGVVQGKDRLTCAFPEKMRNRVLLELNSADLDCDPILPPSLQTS
Assay Overview: ELISA, coated antigen
Reported Endpoint: pEC50
Lab note: report pEC50 as minus log10 of the concentration in molar units, number only.

Sample records with pEC50:
Binder: 286B4 chimeric antibody (antibody, V domains shown, chimeric mAb; also called 284B4-C) VH: DVQLHESGPGLVKPSQSLSLTCSVTGYSITNNYYWNWIRQFPGNNLEWMGYITYDGSNNYNPSLKNRISVTRDTSKNQFFLKLSSVTTEDTATYYCTRGGGQLRFDYWGQGTTLTVSS VL: SIVMTQTPKFLIVSAGDRVTITCKASQSVSNEVTWYQQKPGQSPKMLIYYASNRYTGVPDRFTGSGYGTDFTFTINTVQAEDLAIYFCQQDYSSPWTFGGGTKLEIK
pEC50: 9.66
//
Binder: 367B8 chimeric antibody (antibody, V domains shown, chimeric mAb) VH: QVQLQQPGTELVKPGASVKLSCKASGYTFTSYWMHWVKQRPEQGLEWIGNINPSNGNTNYNENFKSQATLTVDKSSSTAYMQLSSLTSEDSAVYYCARGGWDFDYWGQGTTLTVSS VL: QVVLTQSPAIMSASPGEKVTMTCSASSSVRYIHWYQQRSGTSPKRWIYDTSKLTSGVPVRFSGSGSGTSYSLTISSMEAEDAATYYCQQWTSKPPWTFGGGTKLEIR
pEC50: 9.89
//
Binder: 24F10 chimeric antibody (antibody, V domains shown, chimeric mAb) VH: EVQLVESGGGLVKPGGSLKLSCAASGFTFSDYGMHWVRQAPEKGLEWVAYISSGTSTIYYTDTVKGRFTISRDNAKNTLFLQMTSLRSEDTAMYYCARGGDGYYRSTMDYWGQGISVTVSS VL: DIVLTQSPASLAVSLGQRATISCRASQSVSSSSYSYMHWYQQKPGQPPKLLIKSASNLASGVPARFSGSGSGTDFTLNIHPVEEEDSATYYCQHSWEVPRTFGGGTKLEIK
pEC50: 9.68
//
Binder: 449H9 chimeric antibody (antibody, V domains shown, chimeric mAb) VH: QVQLQQSGAELVRPGSSVRISCKASGYAFSNYWMNWVKQRPGQGLEWIGQIYPGDGDTNYNGKFKNKATLTTDKSSSTAYMQLSSLTSEDSAVYFCARHYDYPYYYAMDYWGQGTSVTVSS VL: DIQMTQSPSSLSASLGERVSLTCRASQDIGIALTWLQQEPDGTIKRLIYATSSLDSGVPKRFSGSRSGSDYTLTISSLESEDFVDYYCLQYIISPYTFGGGTKLEIK
pEC50: 10.00

Let us move to another entry and its pEC50.
Prompt line: Tell me the measured pEC50 of 389G2 chimeric antibody (antibody, V domains shown, chimeric mAb) VH: QVQLQQPGTELVKPGASVKLSCKASGYTFTSYWMHWVKQRPEQGLEWIGNINPSNGNTNYNERFKSKATLTVDKSSSTAYMQLSSLTSEDSTVYYCARGGWDFDYWGQGTTLTVSS VL: QVVLTQSPAIMSASPGEKVTMTCSASSSVRYIHWYQQRSGTSPKRWIYDTSKLTSGVPVRFSGSGSGTSFSLTISSMEAEDAATYYCQQWTSKPPWTFGGGTKLEIK , please.
Response line: 9.72
